// values below are reported 8OG:A repair function score
B1: library; numbered along this chain (parent)
chain: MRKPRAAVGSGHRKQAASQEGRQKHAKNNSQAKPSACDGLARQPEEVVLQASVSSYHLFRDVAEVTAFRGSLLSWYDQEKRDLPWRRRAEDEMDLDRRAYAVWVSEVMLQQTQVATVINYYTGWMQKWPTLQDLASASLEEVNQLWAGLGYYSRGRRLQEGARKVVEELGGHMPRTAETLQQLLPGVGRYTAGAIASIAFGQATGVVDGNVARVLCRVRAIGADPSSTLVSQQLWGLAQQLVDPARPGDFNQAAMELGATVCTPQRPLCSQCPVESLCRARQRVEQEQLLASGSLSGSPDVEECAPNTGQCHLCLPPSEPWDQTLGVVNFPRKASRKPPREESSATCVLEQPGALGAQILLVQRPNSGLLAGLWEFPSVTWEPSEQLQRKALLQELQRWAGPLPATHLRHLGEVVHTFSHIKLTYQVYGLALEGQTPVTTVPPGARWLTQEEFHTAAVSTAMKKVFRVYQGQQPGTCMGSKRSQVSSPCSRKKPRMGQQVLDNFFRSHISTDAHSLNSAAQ

Variants of: B1
test-protocol: 8OG:A repair function score (normalized; synonymous = 0, nonsense = -1) (normalized log-likelihood score); higher = more repair activity (WT-like);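 also: cells sorted at 72 h after reporter transfection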
condition-description: with 8OG:A DNA repair reporter (GFP) in HEK-293 MUTYH KO cells
assay-endpoint: 8OG:A repair function score

>>> reported("D91T")
-0.0112
>>> reported("Q111I")
-1.18
>>> reported("G170H")
0.094
>>> reported("L408R")
-0.839
>>> reported("W381H")
0.26
>>> reported("M462E")
-0.603
>>> reported("M255G")
-1.02
>>> reported("C347V")
-0.045
>>> reported("E64G")
-0.0592
>>> reported("A220R")
-0.747
>>> reported("R398C")
-0.0446
